Listed here: items and their measured Fold change in RNA expression between the ON state and the OFF state.
system: Renilla luciferase RNA; assay: Barcoded aptazyme variant library screen: un-cleaved Renilla luciferase RNA by barcode read counts, HEK293-T cells; format: cell-based; details: un-cleaved Renilla luciferase RNA by barcode read counts; with 1 mM theophylline (ON) over without theophylline (OFF); HEK293-T cells; triplicate

* RA452 (nucleic acid, expressed or natural sequence) DNA: GCGCGTCCTGGAGAATACCAGCATCGTCTTGATGCCCTTGGAAGTCTATTCGCGGAAACGCGTACATCCAGCTGACGAGTCCCAAATAGGACGAAACGCGC | 0.5

Consider now this further molecule.
Query string: For RA469 (nucleic acid, expressed or natural sequence) DNA: GCGAGAATACCAGCATCGTCTTGATGCCCTTGGAAGTCTCGCGCGTCCTGGATTCGCGGAAACGCGTACATCCAGCTGACGAGTCCCAAATAGGACGAAACGCGC , what is its reported Fold change in RNA expression between the ON state and the OFF state?
Result string: 0.4
